# Test system: IB3-1
# test_protocol: Inhibition of TNF-alpha induced NFkappaB in human IB3-1 cells assessed as reduction in IL-8 mRNA expression at 1 uM preincubated for 5 hrs followed by TNF-alpha stimulation measured after 24 hrs by RT-qPCR analysis relative to control
# Assay type: cell-based
reported_metric: inhibition (%)
Give the value in % but do not write % after it.

See these solved cases before continuing.
- entry_smiles: "Cc1cc(=O)oc2c1ccc1oc(CN)cc12"
  unit_descriptor: "%"
  inhibition: 55
- entry_smiles: "Cc1oc2c(C)cc3c(C)cc(=O)oc3c2c1C"
  unit_descriptor: "%"
  inhibition: 57
- entry_smiles: "Cc1coc2c1c(C)cc1oc(=O)cc(C)c12"
  unit_descriptor: "%"
  inhibition: 73
- entry_smiles: "Cc1cc2c(C)cc3oc(=O)cc(C)c3c2o1"
  unit_descriptor: "%"
  inhibition: 68
- entry_smiles: "Cc1cc2c(CO)cc(=O)oc2c2c(C)coc12"
  unit_descriptor: "%"
  inhibition: 51

Could you now consider this next compound?
Data point: `Cc1oc2c(c(C)cc3oc(=O)cc(C)c32)c1C` ; inhibition = 66
